Data provenance: ChEMBL document CHEMBL3785049

biological target: Metallo-beta-lactamase type 2 (Klebsiella pneumoniae, UniProt C7C422); assay: Binding affinity to His-tagged Klebsiella pneumoniae NDM-1 expressed in Escherichia coli BL21-AI cells by surface plasmon resonance assay
Sequence (C7C422 whole entry): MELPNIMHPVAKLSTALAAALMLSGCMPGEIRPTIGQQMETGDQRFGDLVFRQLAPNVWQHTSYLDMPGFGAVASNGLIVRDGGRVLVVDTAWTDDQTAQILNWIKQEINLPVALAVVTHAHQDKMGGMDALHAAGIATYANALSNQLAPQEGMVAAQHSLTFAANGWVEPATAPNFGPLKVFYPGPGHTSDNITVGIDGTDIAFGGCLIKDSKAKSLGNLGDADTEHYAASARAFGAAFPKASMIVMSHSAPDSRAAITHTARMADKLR
Overview of reported Kd across a group of molecules:
Reply numerically in µM, unit not repeated.

{"molecule": "N#Cc1coc2ccccc2c1=O", "result-unit": "µM", "Kd": 181}
{"molecule": "CCCc1ccc(C(=O)CCC(=O)O)cc1", "result-unit": "µM", "Kd": 2100}
{"molecule": "C[C@@H](O)[C@H]1C(=O)N2C(C(=O)O)=C(S[C@@H]3CN[C@H](C(=O)N(C)C)C3)[C@H](C)[C@H]12 [MEROPENEM]", "result-unit": "µM", "Kd": 11}

Q) Can you look up the measured Kd of O=C(O)CCCc1c[nH]c2ccccc12 for me?
A) 806

Q) Can you look up the measured Kd of O=C(O)CSc1ccnc2cc(Cl)ccc12 for me?
A) 804

* * *

target: Metallo-beta-lactamase type 2 (Klebsiella pneumoniae, UniProt C7C422); assay: Inhibition of His-tagged Klebsiella pneumoniae NDM-1 expressed in Escherichia coli BL21-AI cells using imipinem as substrate; settings: read-out: IC50
measurement-kind: IC50 (mM)
Reply numerically in mM, unit not repeated.

These recorded examples may help you get a feel for the data.
{"smiles-repr": "CCCc1ccc(C(=O)CCC(=O)O)cc1", "result-unit": "mM", "IC50": 3.11}
{"smiles-repr": "O=C(O)CSc1ccnc2cc(Cl)ccc12", "result-unit": "mM", "IC50": 1.24}
{"smiles-repr": "O=C(O)CCCc1c[nH]c2ccccc12", "result-unit": "mM", "IC50": 1.95}

Here is the next item to consider.
Q) Can you look up the measured IC50 of N#Cc1coc2ccccc2c1=O for me?
A) 0.48

* * *

Overview of reported inhibition across a group of compounds:
molecular target: Metallo-beta-lactamase type 2 (Klebsiella pneumoniae); assay: Inhibition of His-tagged Klebsiella pneumoniae NDM-1 expressed in Escherichia coli BL21-AI cells at 500 uM using imipinem as substrate

{"smiles-repr": "O=C(O)CCCc1c[nH]c2ccccc12", "inhibition": "> 20%"}
{"smiles-repr": "N#Cc1coc2ccccc2c1=O", "inhibition": "> 20%"}
{"smiles-repr": "CCCc1ccc(C(=O)CCC(=O)O)cc1", "inhibition": "> 20%"}

Here is the next item to consider.
Q) Can you look up the measured inhibition of O=C(O)CSc1ccnc2cc(Cl)ccc12 for me?
A) > 20%
